Just for reference, paper PMC12067444 is where these values come from.

target: P-gp (MDR1) (Homo sapiens); test: Bidirectional permeability in MDR1-MDCKII cells with and without GF120918; settings: dog, MDCK-MDR1, Mean recovery % A to B, with GF120918
Sequence (P08183 whole entry): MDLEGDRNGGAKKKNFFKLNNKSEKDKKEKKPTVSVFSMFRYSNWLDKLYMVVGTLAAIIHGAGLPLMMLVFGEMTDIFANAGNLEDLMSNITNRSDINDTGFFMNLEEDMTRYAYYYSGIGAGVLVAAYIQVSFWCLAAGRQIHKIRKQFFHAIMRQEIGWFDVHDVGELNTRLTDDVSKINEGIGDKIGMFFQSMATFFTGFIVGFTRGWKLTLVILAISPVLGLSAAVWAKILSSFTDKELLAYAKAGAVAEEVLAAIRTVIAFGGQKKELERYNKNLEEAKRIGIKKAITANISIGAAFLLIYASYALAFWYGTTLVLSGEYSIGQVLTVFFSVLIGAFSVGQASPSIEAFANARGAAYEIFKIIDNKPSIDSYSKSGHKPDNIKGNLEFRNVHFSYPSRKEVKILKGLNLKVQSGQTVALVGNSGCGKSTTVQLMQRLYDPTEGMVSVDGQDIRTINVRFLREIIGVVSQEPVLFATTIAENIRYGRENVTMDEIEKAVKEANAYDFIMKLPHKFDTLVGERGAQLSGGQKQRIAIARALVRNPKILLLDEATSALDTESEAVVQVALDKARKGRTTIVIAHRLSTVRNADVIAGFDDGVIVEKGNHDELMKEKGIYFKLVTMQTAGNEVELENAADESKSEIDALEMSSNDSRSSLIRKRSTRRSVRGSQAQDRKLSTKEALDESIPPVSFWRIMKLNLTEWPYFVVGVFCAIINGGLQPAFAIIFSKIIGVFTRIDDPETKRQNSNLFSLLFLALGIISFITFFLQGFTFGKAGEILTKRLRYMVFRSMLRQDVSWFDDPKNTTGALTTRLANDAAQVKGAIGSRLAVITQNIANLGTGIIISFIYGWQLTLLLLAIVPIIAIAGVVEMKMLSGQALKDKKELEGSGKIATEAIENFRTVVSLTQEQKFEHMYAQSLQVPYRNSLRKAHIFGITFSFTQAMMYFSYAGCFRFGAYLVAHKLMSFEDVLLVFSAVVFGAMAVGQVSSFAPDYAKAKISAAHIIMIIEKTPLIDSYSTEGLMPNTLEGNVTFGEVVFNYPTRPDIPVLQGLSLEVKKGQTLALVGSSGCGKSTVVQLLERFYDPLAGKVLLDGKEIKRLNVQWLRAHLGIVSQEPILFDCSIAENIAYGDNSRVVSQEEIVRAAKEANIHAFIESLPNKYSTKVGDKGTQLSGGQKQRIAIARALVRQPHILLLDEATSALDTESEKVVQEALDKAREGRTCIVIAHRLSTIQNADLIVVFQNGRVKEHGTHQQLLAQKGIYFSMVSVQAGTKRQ
Quantity Measured: recovery at 2.5 h (%)
Write the number in % without appending the unit.

IN: Query recovery at 2.5 h for O=S(=O)(NC1CCCOc2c1nn(-c1ccccc1Cl)c2-c1ccc(Cl)cc1)c1ccc(Cl)cc1 (stereo not shown)
OUT: 7.87

###

molecular target: hERG cardiac potassium channel (Homo sapiens); test: hERG automated patch clamp (SyncroPatch 384PE); details: whole cell hERG currents
Sequence (Q12809 whole entry): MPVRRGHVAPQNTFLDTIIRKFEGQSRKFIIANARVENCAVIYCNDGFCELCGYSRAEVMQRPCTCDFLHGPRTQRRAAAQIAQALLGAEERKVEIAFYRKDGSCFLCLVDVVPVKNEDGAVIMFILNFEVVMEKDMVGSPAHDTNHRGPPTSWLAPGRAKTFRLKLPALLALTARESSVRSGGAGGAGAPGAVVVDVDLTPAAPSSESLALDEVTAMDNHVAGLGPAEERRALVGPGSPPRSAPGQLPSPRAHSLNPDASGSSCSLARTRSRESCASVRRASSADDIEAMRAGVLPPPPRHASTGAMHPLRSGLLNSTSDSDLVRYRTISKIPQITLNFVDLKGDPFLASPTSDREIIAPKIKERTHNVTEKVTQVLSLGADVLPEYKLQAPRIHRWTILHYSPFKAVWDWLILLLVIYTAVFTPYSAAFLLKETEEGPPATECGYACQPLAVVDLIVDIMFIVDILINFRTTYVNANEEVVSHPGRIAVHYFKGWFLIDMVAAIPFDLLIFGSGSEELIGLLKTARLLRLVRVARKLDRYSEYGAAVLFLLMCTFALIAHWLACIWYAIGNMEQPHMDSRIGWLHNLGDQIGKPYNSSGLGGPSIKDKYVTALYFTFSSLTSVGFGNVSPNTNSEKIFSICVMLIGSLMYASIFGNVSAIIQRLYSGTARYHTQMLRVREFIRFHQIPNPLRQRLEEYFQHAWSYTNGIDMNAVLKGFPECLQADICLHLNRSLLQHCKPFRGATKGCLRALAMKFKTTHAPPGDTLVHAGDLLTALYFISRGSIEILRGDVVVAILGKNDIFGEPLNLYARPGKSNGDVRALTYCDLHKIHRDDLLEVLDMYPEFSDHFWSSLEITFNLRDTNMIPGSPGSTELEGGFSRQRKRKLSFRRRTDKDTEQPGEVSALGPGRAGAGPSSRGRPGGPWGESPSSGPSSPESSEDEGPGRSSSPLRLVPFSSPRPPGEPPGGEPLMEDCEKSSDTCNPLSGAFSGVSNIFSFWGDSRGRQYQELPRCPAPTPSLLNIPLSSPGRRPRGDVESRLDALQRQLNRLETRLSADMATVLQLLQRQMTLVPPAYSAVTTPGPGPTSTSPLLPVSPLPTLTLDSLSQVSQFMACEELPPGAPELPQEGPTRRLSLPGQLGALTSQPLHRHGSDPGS
Could you please report measured IC50 for the items listed next?
Write the number in µM without appending the unit.

IN: Output reported IC50 of the molecule Cc1ccc(S(=O)(=O)NC2CCCOc3c2nn(-c2ccccc2Cl)c3-c2ccc(Cl)cc2)cc1 (stereo not drawn) on hERG cardiac potassium channel (Homo sapiens).
OUT: 18

IN: Output reported IC50 of the molecule O=S(=O)(NC1CCCOc2c1nn(-c1ccccc1Cl)c2-c1ccc(Cl)cc1)c1ccc(Cl)cc1 (stereo not drawn) on hERG cardiac potassium channel (Homo sapiens).
OUT: 5.39

IN: Output reported IC50 of the molecule CS(=O)(=O)N1CCC(C(=O)NC2CCCOc3c2nn(-c2ccccc2Cl)c3-c2ccc(Cl)cc2)CC1 (stereo not drawn) on hERG cardiac potassium channel (Homo sapiens).
OUT: 4.86
